- target.system: Type-1 angiotensin II receptor B (Rattus norvegicus)
- Sequence (P29089 whole entry): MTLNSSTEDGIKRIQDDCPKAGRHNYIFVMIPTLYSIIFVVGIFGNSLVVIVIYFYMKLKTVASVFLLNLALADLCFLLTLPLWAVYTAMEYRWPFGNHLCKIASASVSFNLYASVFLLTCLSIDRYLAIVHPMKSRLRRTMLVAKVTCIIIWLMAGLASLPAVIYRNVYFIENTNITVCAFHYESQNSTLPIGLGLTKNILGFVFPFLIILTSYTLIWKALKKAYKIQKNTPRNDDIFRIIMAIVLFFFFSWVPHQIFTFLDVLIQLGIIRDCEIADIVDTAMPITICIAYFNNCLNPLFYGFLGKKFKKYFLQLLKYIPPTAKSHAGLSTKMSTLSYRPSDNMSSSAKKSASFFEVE
pKi: −log10 of the molar value.
Criterion: pKi meeting or surpassing 7. Met: met. Not met: not met.

Example entries and their recorded answers appear below.
CCCCc1nc(-c2ccccc2)c(C(=O)OCC)c(=O)n1Cc1ccc(-c2ccccc2C(=O)O)cc1; not met
CCCCC1=NC(Cl)=C(C(=O)OCC)C(C)N1Cc1ccc(-c2ccccc2C(=O)O)cc1 (configuration not stated); met
CCCCC1=NC(C)=C(C(=O)OCC)C(C)N1Cc1ccc(-c2ccccc2C(=O)O)cc1 (configuration not stated); not met
CCCCC1=NC(c2ccc(Cl)cc2)=C(C(=O)OCC)C(C)N1Cc1ccc(-c2ccccc2C(=O)O)cc1 (configuration not stated); not met
CCCCC1=NC(c2ccccc2)=C(C(=O)OCC)C(C)N1Cc1ccc(-c2ccccc2C(=O)O)cc1 (configuration not stated); not met

Field: next molecule
IN: pKi >= 7 for CCCCC1=NC(C)(C)C(C(=O)OCC)=C(Cl)N1Cc1ccc(-c2ccccc2C(=O)O)cc1 ?
OUT: met
